Source: BindingDB's records for doi:10.1021/jm021050c

STUDY TARGET: imidazoline I2 binding site (Oryctolagus cuniculus)
METHOD NOTES: In vitro binding affinity determined against imidazoline receptor I-2 using rabbit kidney preparation
TEST READOUT: Ki

COMPOUND	RESULT
CN1CC(C)(C2=NCCN2)Oc2ccccc21 (stereo not drawn)	> 10000 nM
Cc1cc(C)c2c(c1)N(C)CC(C1=NCCN1)O2 (stereo not drawn)	> 1000 nM
Cc1ccc2c3c1CCCN3CC(C1=NCCN1)O2 (stereo not drawn)	> 1000 nM
